Taken from PubChem BioAssay (NCI).

experiment: NCI Yeast Anticancer Drug Screen. Data for the rad14 strain (AID 159);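 also: 0% = growth of vehicle-treated control cultures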; conditions: S. cerevisiae rad14 strain growth inhibition; at 100.0 µM; hits give high values
Compounds without any hit were thinned out: in the full panel of roughly 79,000, 15% have a hit. Calls of active or inactive are those of the source. Rule as the data show it: active = growth inhibition above about 70%; inactive = the rest.
# maps each entry to its growth inhibition

[
  {
    "line-notation": "Nc1ccc(S(=O)(=O)Nc2nc3c(c(=O)[nH]2)CCCC3)cc1",
    "growth inhibition": "100% (active)"
  },
  {
    "line-notation": "CCCCCCCC/C=C\\CCCCCCCCN",
    "growth inhibition": "97% (active)"
  },
  {
    "line-notation": "CC(C)=CCc1c2c(c(O)c3c(=O)c(-c4ccc(O)c(O)c4)coc13)C=CC(C)(C)O2",
    "growth inhibition": "87% (active)"
  },
  {
    "line-notation": "COc1cc([C@@H]2c3cc4c(cc3[C@@H](NC(=O)NO)[C@H]3COC(=O)[C@H]23)OCO4)cc(OC)c1O",
    "growth inhibition": "8% (inactive)"
  },
  {
    "line-notation": "O=C1c2ccccc2-c2ccc(N=Cc3ccccc3)cc21",
    "growth inhibition": "45% (inactive)"
  }
]

---

The compounds listed here are annotated with their growth inhibition.
Test: NCI Yeast Anticancer Drug Screen. Data for the rad52 strain (AID 147);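 also: 0% = growth of vehicle-treated control cultures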
Conditions: S. cerevisiae rad52 mutant growth inhibition; at 3.7 µM; hits give high values
Method: Growth inhibition of yeast strains with defined genetic alterations is measured as a screen for potential anti-cancer activity. Selected strains with alterations in DNA damage repair or cell cycle control were exposed to compounds and growth inhibition was measured relative to vehicle treated controls. The strain used in this assay is rad52
The panel holds about 79,000 compounds, 15% with a hit somewhere; the sample as a whole holds those more often.

[
  {
    "compound": "COc1ccc2nc3cccc([N+](=O)[O-])c3c(NCCCCCC(=O)O)c2c1",
    "growth inhibition (%)": 96
  },
  {
    "compound": "CCCN=Cc1cc(Cc2ccc(O)c(C=NCCC)c2)ccc1O",
    "growth inhibition (%)": 95
  },
  {
    "compound": "Oc1c2c(c(O)c3ccccc13)C1(N=N2)c2ccccc2Oc2ccccc21",
    "growth inhibition (%)": 72
  },
  {
    "compound": "COC(=N)c1ccc(O)c(C)c1",
    "growth inhibition (%)": -6
  },
  {
    "compound": "CC(C)OP(=O)(OC(C)C)C(=NCCO)NNc1ccc([N+](=O)[O-])cc1",
    "growth inhibition (%)": 3
  },
  {
    "compound": "Cc1cc2nc3ccccc3n2c2ccccc12",
    "growth inhibition (%)": -33
  },
  {
    "compound": "Cc1ccc(Nc2n[nH]c(=S)s2)c(C)c1",
    "growth inhibition (%)": -28
  },
  {
    "compound": "O=S(=O)(NC1CCCC(c2ccccc2)C1)c1ccccc1 (centres undefined)",
    "growth inhibition (%)": 3
  },
  {
    "compound": "CCN(CC)CCC(=O)Nc1ccc2sc3ccccc3c(=O)c2n1",
    "growth inhibition (%)": 70
  },
  {
    "compound": "O=NC1c2cccc3cccc(c23)C1N=O (centres undefined)",
    "growth inhibition (%)": 33
  },
  {
    "compound": "Cc1ccc(NC(=O)CCC(=O)C(C)C(=O)c2ccccc2)c(C)c1 (centres undefined)",
    "growth inhibition (%)": 1
  },
  {
    "compound": "O/N=c1/ccn(O)c2ccccc12",
    "growth inhibition (%)": 91
  },
  {
    "compound": "CCCCCCCCN1COCC(COc2ccccc2C)OC1 (centres undefined)",
    "growth inhibition (%)": 0
  },
  {
    "compound": "NCCCSc1ccccc1",
    "growth inhibition (%)": -2
  },
  {
    "compound": "O=C(Nc1ccc(Cl)cc1)c1cc2cc(N=Nc3ccccc3Cl)ccc2oc1=O",
    "growth inhibition (%)": 25
  },
  {
    "compound": "O=CC1(F)CC1(c1ccccc1)c1ccccc1 (centres undefined)",
    "growth inhibition (%)": -4
  },
  {
    "compound": "CC(=O)NC(c1nc2cc(C)c(C)cc2[nH]1)c1nc2cc(C)c(C)cc2[nH]1",
    "growth inhibition (%)": -2
  },
  {
    "compound": "Nc1cccc(-c2cc[cH-]c2)c1.[Fe+2].c1cc[cH-]c1",
    "growth inhibition (%)": 6
  },
  {
    "compound": "O=C1C(=C2CCCC2)CCC1CN1CCCCC1 (centres undefined)",
    "growth inhibition (%)": 16
  },
  {
    "compound": "O=C(/N=N/C(=O)Oc1ccccc1)Oc1ccccc1",
    "growth inhibition (%)": -54
  },
  {
    "compound": "Nc1ccc(/C=C/c2ccc3cccnc3c2)cc1",
    "growth inhibition (%)": -3
  },
  {
    "compound": "O=C1CSC(c2ccccc2)N1c1ccc(-c2ccc(-n3c(-c4ccccc4)nc4ccccc4c3=O)cc2)cc1 (centres undefined)",
    "growth inhibition (%)": 1
  },
  {
    "compound": "O=Cc1ccccc1C=O",
    "growth inhibition (%)": -11
  },
  {
    "compound": "COc1cc([N+](=O)[O-])c2ncccc2c1Br",
    "growth inhibition (%)": 41
  },
  {
    "compound": "Cc1cccc2c(Cl)c3cccc(C)c3nc12",
    "growth inhibition (%)": -1
  },
  {
    "compound": "CN(C)CCNc1ccc2ncn3c4ccc(O)cc4c(=O)c1c23",
    "growth inhibition (%)": 3
  },
  {
    "compound": "S=C1C(=Nc2ccccc2)N(c2ccccc2)/C(=N\\c2ccccn2)N1c1ccccc1",
    "growth inhibition (%)": 1
  },
  {
    "compound": "CC(CC/C(=N/O)c1ccccc1)(CC/C(=N\\O)c1ccccc1)[N+](=O)[O-] (centres undefined)",
    "growth inhibition (%)": 2
  },
  {
    "compound": "O=C1C=CC(=Nc2cccc3c2-c2ccccc2C3=O)O1",
    "growth inhibition (%)": 16
  },
  {
    "compound": "CC(/C=C/c1ccc([N+](=O)[O-])o1)=N/N1CC(CN2CCOCC2)OC1=O (centres undefined)",
    "growth inhibition (%)": 5
  },
  {
    "compound": "COc1cc(NCCCCNCC(C)(C)C)c2ncccc2c1",
    "growth inhibition (%)": 1
  },
  {
    "compound": "CCN(CC)CCCNc1ccc([N+](=O)[O-])c2nc3ccc(OC)cc3c(NCCCN(CC)CC)c12",
    "growth inhibition (%)": 6
  },
  {
    "compound": "CC(=O)CC(c1ccccc1)c1c(O)c2ccccc2oc1=O (centres undefined)",
    "growth inhibition (%)": -1
  },
  {
    "compound": "CN(C)/C(=N/C(=S)Nc1ccccc1)SCc1ccccc1",
    "growth inhibition (%)": -4
  },
  {
    "compound": "CCCC/C=C1\\CCC(CN2CCCC2)C1=O (centres undefined)",
    "growth inhibition (%)": -24
  },
  {
    "compound": "Cc1c2c(nc3ccccc13)C(=O)c1cccnc1C2=O",
    "growth inhibition (%)": 0
  },
  {
    "compound": "CCCCCCCCCCCCCCN",
    "growth inhibition (%)": 1
  },
  {
    "compound": "O=C(/C(=C/c1ccc(O)cc1)c1ccccc1)c1ccccc1",
    "growth inhibition (%)": -55
  },
  {
    "compound": "O=C1CCC(Cc2ccccc2)CN1 (centres undefined)",
    "growth inhibition (%)": -1
  },
  {
    "compound": "O=C(NC(N1CCN(c2cc3c(cc2F)c(=O)c(C(=O)O)cn3C2CC2)CC1)(C(F)(F)F)C(F)(F)F)c1ccccc1",
    "growth inhibition (%)": 1
  },
  {
    "compound": "CCCCCCCC/C=C\\CCCCCCCCN",
    "growth inhibition (%)": 0
  },
  {
    "compound": "O=[N+]([O-])c1ccc(/C=C\\c2ccc3c(c2)OCO3)c([N+](=O)[O-])c1",
    "growth inhibition (%)": 12
  },
  {
    "compound": "c1ccc([P+](CCN2Cc3ccccc3C2)(c2ccccc2)c2ccccc2)cc1",
    "growth inhibition (%)": 54
  },
  {
    "compound": "O=C1c2ccccc2N2OC3(N4CCCC4)CCCCC3C12c1ccccc1 (centres undefined)",
    "growth inhibition (%)": 1
  },
  {
    "compound": "Fc1ccc(Nc2ccc3ccccc3c2)cc1",
    "growth inhibition (%)": -2
  },
  {
    "compound": "O=[N+]([O-])c1cn[n+]([O-])c2ccccc12",
    "growth inhibition (%)": 59
  },
  {
    "compound": "CNC(=O)OCc1c2ccncc2c(C)c2c1[nH]c1ccccc12",
    "growth inhibition (%)": 82
  },
  {
    "compound": "O=C(O)/C=C\\C(=O)Nc1ccc2c(c1)Cc1cc(Cl)ccc1-2",
    "growth inhibition (%)": -3
  },
  {
    "compound": "CCC(C)(C)c1ccc(Oc2ccccc2)c(N)c1",
    "growth inhibition (%)": -4
  }
]
